target: p110α/p85α (Homo sapiens (Human)); test: PI 3-Kinase (human) HTRF assay, p110α/p85α; format: biochemical; details: in vitro; read-out: PI3K α IC50
Sequence (P42336 whole entry): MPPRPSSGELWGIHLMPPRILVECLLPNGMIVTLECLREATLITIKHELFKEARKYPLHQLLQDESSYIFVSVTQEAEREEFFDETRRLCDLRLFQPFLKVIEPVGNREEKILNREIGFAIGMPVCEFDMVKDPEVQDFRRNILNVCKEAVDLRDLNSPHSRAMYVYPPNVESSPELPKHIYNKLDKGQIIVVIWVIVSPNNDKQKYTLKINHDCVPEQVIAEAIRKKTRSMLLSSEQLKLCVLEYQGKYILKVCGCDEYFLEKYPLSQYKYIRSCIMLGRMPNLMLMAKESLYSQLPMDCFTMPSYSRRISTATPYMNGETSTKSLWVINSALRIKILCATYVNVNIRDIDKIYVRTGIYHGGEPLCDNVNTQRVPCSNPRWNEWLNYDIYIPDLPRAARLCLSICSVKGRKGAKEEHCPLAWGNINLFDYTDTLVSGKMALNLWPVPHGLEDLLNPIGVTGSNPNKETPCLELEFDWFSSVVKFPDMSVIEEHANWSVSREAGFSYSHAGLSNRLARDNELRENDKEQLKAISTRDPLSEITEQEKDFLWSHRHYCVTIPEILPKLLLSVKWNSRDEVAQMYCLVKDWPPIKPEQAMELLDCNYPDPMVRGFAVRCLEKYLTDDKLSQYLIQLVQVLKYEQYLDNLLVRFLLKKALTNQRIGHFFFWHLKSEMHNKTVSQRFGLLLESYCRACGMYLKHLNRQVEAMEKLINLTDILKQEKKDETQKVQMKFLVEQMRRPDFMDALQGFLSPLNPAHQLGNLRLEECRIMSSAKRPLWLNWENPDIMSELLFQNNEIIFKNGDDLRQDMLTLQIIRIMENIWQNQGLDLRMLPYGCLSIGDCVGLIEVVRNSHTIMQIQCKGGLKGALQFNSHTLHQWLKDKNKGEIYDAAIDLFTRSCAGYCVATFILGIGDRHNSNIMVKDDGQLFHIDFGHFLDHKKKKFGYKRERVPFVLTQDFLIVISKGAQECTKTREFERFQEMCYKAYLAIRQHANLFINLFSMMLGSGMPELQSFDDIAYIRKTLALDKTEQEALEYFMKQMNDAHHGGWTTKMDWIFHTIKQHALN
Sequence (P27986 whole entry partner): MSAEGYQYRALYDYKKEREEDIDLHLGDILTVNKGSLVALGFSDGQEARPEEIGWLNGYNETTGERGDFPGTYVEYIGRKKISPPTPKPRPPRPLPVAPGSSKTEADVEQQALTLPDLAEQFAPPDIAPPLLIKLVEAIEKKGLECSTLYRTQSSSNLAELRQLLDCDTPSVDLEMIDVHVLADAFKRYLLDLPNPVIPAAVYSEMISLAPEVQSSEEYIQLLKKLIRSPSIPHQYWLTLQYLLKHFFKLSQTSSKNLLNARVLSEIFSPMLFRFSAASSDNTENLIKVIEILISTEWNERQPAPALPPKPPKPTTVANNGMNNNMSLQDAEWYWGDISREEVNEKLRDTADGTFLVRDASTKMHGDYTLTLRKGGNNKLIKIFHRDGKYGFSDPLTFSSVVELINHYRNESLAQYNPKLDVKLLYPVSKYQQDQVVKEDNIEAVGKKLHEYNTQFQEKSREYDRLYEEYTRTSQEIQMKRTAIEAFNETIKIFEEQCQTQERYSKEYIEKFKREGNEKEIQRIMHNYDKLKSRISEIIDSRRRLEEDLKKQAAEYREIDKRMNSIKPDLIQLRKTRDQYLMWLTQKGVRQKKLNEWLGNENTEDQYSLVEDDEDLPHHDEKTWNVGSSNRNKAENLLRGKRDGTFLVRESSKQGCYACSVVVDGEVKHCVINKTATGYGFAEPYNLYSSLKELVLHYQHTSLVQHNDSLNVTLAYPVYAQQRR
Quick list: IC50 per entry.

Previously resolved entries follow.
>  <smiles str>
Cc1ccn(C2CN(c3cnc4ccc(-c5ccc6oc(N)nc6c5)cc4n3)C2)n1

>  <subject of test>
p110α/p85α (Homo sapiens (Human))

>  <result>
< 100 nM

$$$$
>  <smiles str>
CCN(CC)CCNC(=O)c1cnc2ccc(-c3ccc4oc(N)nc4c3)cn12

>  <subject of test>
p110α/p85α (Homo sapiens (Human))

>  <result>
< 1000 nM

$$$$
>  <smiles str>
CCN(CC)CCCNc1cnc2ccc(-c3ccc4oc(N)nc4c3)cc2n1

>  <subject of test>
p110α/p85α (Homo sapiens (Human))

>  <result>
< 100 nM

$$$$
>  <smiles str>
COc1nc(-c2ccc3oc(N)nc3c2)cnc1N

>  <subject of test>
p110α/p85α (Homo sapiens (Human))

>  <result>
< 1000 nM

$$$$
>  <smiles str>
COCCn1cnc2ccc(-c3ccc4oc(N)nc4c3)cc2c1=O

>  <subject of test>
p110α/p85α (Homo sapiens (Human))

>  <result>
< 1000 nM

$$$$

Reported IC50 for Cc1nc(NC(=O)N2CCC[C@H]2C(N)=O)sc1-c1ccc2oc(N)nc2c1 was < 1000 nM

Reported IC50 for Cc1cn(C2CN(c3cnc4ccc(-c5ccc6oc(N)nc6c5)cc4n3)C2)cn1 was < 100 nM
